The measurements presented in this section are drawn from PubChem BioAssay (NCI).

System: A498 renal
assay: NCI tumour cell line growth inhibition, 48 h
Overview of reported GI50 across a group of compounds:

Recorded results for 4 compounds are shown here.
compound=COc1cc2c(cc1OCCCOc1cc3c(cc1OC)C(=O)N1CCC[C@H]1CN3)N=C[C@@H]1CCCN1C2=O testreadout=GI50 valueobserved="262 nM"
compound=CCCS(=O)(=O)c1nc(NC2CC2)cc(-c2ccc3c(ccn3C3CC(C)(C)NC(C)(C)C3)c2)n1 testreadout=GI50 valueobserved="1810 nM"
compound="COc1ccc2c(c1)C=CC(C#N)N2C(=O)c1ccccc1 (stereo not given)" testreadout=GI50 valueobserved="< 10 nM"
compound=CCCCCCNc1nc(NCCCCCC)c2[nH]c(NCCCCCC)nc2n1 testreadout=GI50 valueobserved="1200 nM"

Briefly, GI50 measured for `COc1cc(-c2cn(C)c(=O)c(C)c2C)cc(OC)c1CN1CC[C@H](N2CCN(c3ccc(N[C@H]4CCC(=O)NC4=O)cc3F)CC2)C(F)(F)C1` : 13800 nM

---

Overview of reported GI50 across a group of molecules:
Test system: SK-OV-3 ovarian
assay: NCI tumour cell line growth inhibition, 48 h

Recorded results for 2 molecules are shown here.
compoundstructurestring=O=P(O)(O)C(O)(Cn1ccnc1)P(=O)(O)O valueobserved="> 81.1 µM"
compoundstructurestring=O=C(Nc1cc(-c2ccccc2)[nH]n1)c1ccc(Cl)cc1 valueobserved="3.67 µM"

Next molecule, please.
Briefly, GI50 measured for `CNC(=O)c1cn(C[C@H](F)CCc2ccc(NC(=O)Cc3cc(OC4CC(F)(F)C4)cc(C)n3)nn2)nn1` : > 100 µM

---

System: U251 CNS
assay: NCI tumour cell line growth inhibition, 48 h
Overview of reported TGI across a group of molecules:
Give your result in µM as a bare value.

Recorded results for 2 molecules are shown here.
molecule=Oc1ccc(Cc2ccccc2)c2cccnc12 testreadout=TGI valueobserved=37.7
molecule="Cc1ccc(C(=O)CC(Sc2cccc(Cl)c2Cl)c2ccc(Cl)cc2)cc1C (stereo unspecified)" testreadout=TGI valueobserved=25.8

Briefly, TGI measured for FC(F)(F)c1ccc2c(Nc3cccc(C4CC(c5ccccc5)=NN4c4ccc(Cl)cc4)c3)ccnc2c1 (stereo unspecified) : 14.4

Briefly, TGI measured for `COc1ccc(NC2=C(Br)C(=O)C(C)=C(C)C2=O)cc1` : 3.98

Briefly, TGI measured for `Cc1ccc(-c2nc(C(Cl)Cl)n3nc(-c4ccccc4)cc3n2)cc1` : 1.53

---

System: SW-620 colon
assay: NCI tumour cell line growth inhibition, 48 h; in the data active means GI50 below about 0.43 µM; inactive means the rest
# output must be one of T (active), F (inactive)

Previously resolved entries follow.
compoundstructurestring=NCCN1CCN(c2nccc(-c3ccc4ccccc4c3)n2)CC1 label=F
compoundstructurestring=Clc1ccc(OCc2nnc3n2N=C(c2ccc(Cl)cc2Cl)CS3)c(Cl)c1 label=F
compoundstructurestring=Cc1sc(C)c(-c2ccc(CO)o2)c1-c1ccc(CO)o1 label=F
compoundstructurestring=Cc1ccc2/c(=C/c3ccc(N(C)C)cc3)c3cc(-c4ccccc4)[n+](C)n3c2c1 label=T

Which outcome was entered for the compound `c1cc[c]([Sn]([S]c2cccc3cccnc23)([c]2ccccc2)[c]2ccccc2)cc1` in this test?
T

Which outcome was entered for the compound `C=C1CC(COc2cc(Cl)nc(N)n2)C1` in this test?
F

---

Test system: NCI/ADR-RES ovarian
assay: NCI tumour cell line growth inhibition, 48 h
testReadout: GI50

Recorded results for 3 compounds are shown here.
compoundstructurestring=COc1ccc(-c2cc(-c3cc(Cl)ccc3Cl)nc3nc(=S)[nH]c(N)c23)cc1 measurementtarget="NCI/ADR-RES ovarian" valueobserved="20.1 µM"
compoundstructurestring=Cc1ccc(-c2nc(C(Cl)Cl)n3nc(-c4ccccc4)cc3n2)cc1 measurementtarget="NCI/ADR-RES ovarian" valueobserved="0.476 µM"
compoundstructurestring=Clc1ccc(OCc2nnc3n2N=C(c2ccc(Cl)cc2Cl)CS3)c(Cl)c1 measurementtarget="NCI/ADR-RES ovarian" valueobserved="27 µM"

Briefly, GI50 measured for `O=P(O)(O)C(O)(Cn1ccnc1)P(=O)(O)O` : > 64.1 µM

Briefly, GI50 measured for `Cc1sc(C)c(-c2ccc(CO)o2)c1-c1ccc(CO)o1` : > 84.4 µM

Briefly, GI50 measured for `CCN(CCO)CCNc1ccc(C)c2sc3cc(Cl)ccc3c(=O)c12` : 1.49 µM
